The values you see were collected from the nanobody polyreactivity screen of Harvey et al. (2022).

# protocol-details: yeast display, Sf9 membrane polyspecificity reagent, FACS + sequencing; frameworks hold sequencing errors
test-readout: polyreactivity (PSR sort gate)

Example entries begin here.
1) QVQVVESGGGLVQAGGSLRLSCAASGRIFPYYTMGWYRQAPGKERDLVAAISRRGSSTYYADSVKGRFTISRDNAKNTVYLQMNSLKPEDTAVYYCAADRGGYTRTGEYDYWGQCTQVTVSS | high polyreactivity
2) QVQLVESGGGLVQAGGSLRLSCAASGSTLGSNAMGWYRQAPGKERELVAAITWSGGTTYYADSVKGRFTISRDNAKNTVYLQMNSMKPEDSAVYYCNAERGSGVWWKIWGSDPDDYWGQGTQVTVSS | low polyreactivity
3) QVQLVESGGGLVQAGGSLRLSCAASGLIFHRNAMGWYRQAPGTERELVAAITKTGGGTYYADSVKGRFTISRDNAKNTVYLQMNSLKPEDTAVYYCAADTQRTFYYWGQGTQVTVSS | low polyreactivity
4) QVQLVESGGGLVQAGGSLRLSCAASGFILYGNAMGLYRQAPGKERELVAAISRRGGSTYYADSVKGRFTISRDNAKNTVYLQMNSLKPEDTAVYYCAKDGPGGGTRIYEYWGQGTLVTVSS | high polyreactivity
5) QVQLVESGGGLVQAGGSHRLSCAASGSTFRVYAMGGYRQAPGKERELVARISITGGTTRYADSVKGRFTISRDNAKNTVYLQMNSLKPEDTAVYYCNADYDWYYWYLYKYPFDYWGQGTQVTVSS | low polyreactivity
6) QVQLVESGGGLVQARGSLRLSCAASGSTFRFNAMGRYRQAPGKEREFVAAIRFTGGSTYYADSVKGRFTISRDYAKNTVYLQMNSLKPEDTAVYYCNNADEYSNVEYDYWGQGTQVTVSS | low polyreactivity

Below are some sequences; for each one, tell me its polyreactivity (PSR sort gate).
1. QVQLVESGGGLVQAGGSLRLSCAASGSTFCENDMGWYRQAPGKERELVAAISWTGGRTYYADSVKGRFTISRDNAKNTVYLQMNSLKAEDTAVYYFAAEWEYYGFDYWGQGTQVTVSS
2. QVQLVESGGGLVQAGGSLRLSCAASGSTFSGYAMGWYRQAPGKERELVATISGGGSTYYADSVKGRFTISRDNAKNTVYLQMNSLKPEDTAVFYCNAQGYGIFTSSLDYWGQGTQVTVSS
3. QVQLVESGGGLVQAGGSLRLSCAASGIIFRNYAMGWYRQAPGKERELVAAISWTGDSTYYADSVKGRFTISRDNAKNTVYLQMNSLKPEDTAVDYCAAEAYYGLWMDYWGQGTQVTVSS
4. QVQLVESGGGLVQAGRSLRLSCAASGSILLYYTMGWYRQAPGKERELVASITSGGRTYYADSVKGRFTISRDNAKNTVYLQMNSLKPEDTAVYYCAADVWKLYDYWGQGTQVTVSS
5. QVQLVESGGVLVQAGGSLRLSCAASGSLFTRYAMGGYRQAPGKVRELVAAISKSGTTTYYADSVKGRFTISRDNAKNTVYLQMNSLIPEDTAVYYCAAVPIAGKMDYWGQGTQVTVSS
6. QVQLVESGGGLVQAGGSLRLSCAASGLTFPTYAMRWYRQAPGKERELVAAISRIGGRTYYADSVKGRFSISRDNAKNTVYLQMNSLKPEDTAVYYCAADGIKGGVEYDYWGQGTQVTVSS

1. low polyreactivity
2. low polyreactivity
3. low polyreactivity
4. low polyreactivity
5. high polyreactivity
6. high polyreactivity

Hi there! I need polyreactivity (PSR sort gate) for each item below, if you can.
1. QVQLVESGGGLVQAGGSLRLSCAASGSTFLAYAMGWYRQAPGKERELVAAISSSGGRPYYADSVKGRFTISRDYAKNTVYLQMNSLNPEDTAVYYCAARYKNRGGFGYWGQGTRVTVSS
2. QVQLVESGGGLVQAGGSLRLSCAASGRIFTTYAMGWYRQAPGKERELVAAISRSGGSTYYADSVKGRFTISRDNAKNTVYLQMNSLKPEDTAVYYCAAVPTSNSFRSSFYYWGQGTEVTVSS
3. QVQLVESGGGLVQAGGSLRLSCAASGFTFQYYAMGWYRQEPGKERELVAAISWGGGSTYYADSVKGRFTISRDNAKNTVYLQMNSLKPEDTAVYYCNAYEYLSAGYDYWGQGTQVTVSS
4. QVQLVESGGGLVQAGGSLRLSCAASGSTFYAYAMGWYRQAPGTERELVAAITTIGGRTYYADSVKGRFTISRDNAKNTVYLQMNSLKPEDTAVYYCAADIRSNRLYDGGYWGQGTQVTVSS
5. QVQLVESGGGLVQAGGSLRLSCAASGRTFETNAMGWYRQAPGKERELVASINWSGGSTYYADSVKGRFTISRDNAKNTVYLQMNSLKPEDTAVFYCAADHSYWDWWSYYYWGQGTQVTVSS
6. QVQLVESGGGLVQAGGSLRLSCAASGSIFVHYAMGWYRQAPGKERELVAAISRSGGSTYYADSVKGRFTISRDNAKNTFYLQMNSLKPEDTAVYYCAADSGYLSPYDYWGHGTQVTVSS
7. QVQLVESGGGLVQAGGSLRLSCAASGSIFVKYAMGWYRQAPGTERELVAAISGSGGSTYYADSVKGRFTISRDNAKNTVYLQMNSLKPEDTAVYYCAADDYFYSGRYGFEYWGQGTQVTVSS

1: high polyreactivity; 2: high polyreactivity; 3: low polyreactivity; 4: low polyreactivity; 5: low polyreactivity; 6: low polyreactivity; 7: low polyreactivity

Batch: polyreactivity (PSR sort gate) for all items listed.
1. QVQLVESRWRFVQAGGSLRLSCAASGSIFADYAMGWYRQAPGKERELVAAITFSGGSTYYADSVKGRFTISRDNAKNTVYLQMNSLKPEDTAVYYCAARWRYRYYSWGQGTQVTVSS
2. QVQLVESGGGLVQAGGSLRLSCAASGRIFHGNAMGWYRQAPGKEREMVAAITSGGRTFYADSVKGRFTISRDNAKNTVYLQMNSLIPEDTAVFYCNAPSIAGYAEYNSHDYWGQGTQVTVSS

["high polyreactivity", "high polyreactivity"]
